Record form. Attribute: pKd. Fill in for each entry.
STUDY TARGET: HLA-A*02:01
METHOD DESCRIPTION: IEDB peptide-MHC binding, purified MHC/competitive/radioactivity; filed as Kd, often an IC50 or EC50 that approximates it; bounds were set here for any values at or beyond the usual limits of such assays
CONDITIONS USED: source organism: Mycobacterium tuberculosis
# reply with the number alone; pKd is -log10 of concentration in mol/L

Request: Please look at this sequence and report its pKd: AVHDTLFYCV
Result: 6.98

Request: Please look at this sequence and report its pKd: SLYFGGICV
Result: 7.97

Request: Please look at this sequence and report its pKd: KLTADGVLTA
Result: 6.70

Request: Please look at this sequence and report its pKd: LMIGTAAAVV
Result: 7.27

Request: Please look at this sequence and report its pKd: LLGSFELTGI
Result: 7.59

Request: Please look at this sequence and report its pKd: YTYKWETFL
Result: 7.54

Request: Please look at this sequence and report its pKd: FMSLAGFVRM
Result: 6.93

Request: Please look at this sequence and report its pKd: LLFRFMRPL
Result: 7.45

Request: Please look at this sequence and report its pKd: ALYLLDGLRA
Result: 6.58

Request: Please look at this sequence and report its pKd: GLAGTVLRFV
Result: 6.96

Request: Please look at this sequence and report its pKd: MTYAAPLFV
Result: 7.86

Request: Please look at this sequence and report its pKd: GLFLTTEAVV
Result: 6.62

Request: Please look at this sequence and report its pKd: WLLIDTSNA
Result: 6.45

Request: Please look at this sequence and report its pKd: SLLEIGEGV
Result: 7.01

Request: Please look at this sequence and report its pKd: LLATVFKLTA
Result: 6.60

Request: Please look at this sequence and report its pKd: LLLETSWEAI
Result: 6.97

Request: Please look at this sequence and report its pKd: FLLADERVRV
Result: 6.93

Request: Please look at this sequence and report its pKd: GLGGLGLFFA
Result: 7.05

Request: Please look at this sequence and report its pKd: GLMTAVYLV
Result: 8.05

Request: Please look at this sequence and report its pKd: FLLPDAQSI
Result: 6.41

Request: Please look at this sequence and report its pKd: LLAAGVADPV
Result: 6.66

---

STUDY TARGET: HLA-A*02:01
METHOD DESCRIPTION: IEDB peptide-MHC binding, purified MHC/competitive/radioactivity; filed as Kd, often an IC50 or EC50 that approximates it; bounds were set here for any values at or beyond the usual limits of such assays
CONDITIONS USED: source organism: Mycobacterium tuberculosis
MEASURED QUANTITY: Kd (nM)
Reply numerically in nM, unit not repeated.

Request: Please look at this sequence and report its Kd: AMALLRLPLV
Result: 5.1

Request: Please look at this sequence and report its Kd: GIVSGILLSI
Result: 152

Request: Please look at this sequence and report its Kd: RIANGMGATV
Result: 385

Request: Please look at this sequence and report its Kd: MLASTLTDA
Result: 250

Request: Please look at this sequence and report its Kd: AIAWGAWGEV
Result: 312

Request: Please look at this sequence and report its Kd: MLATDLSLRV
Result: 109

Request: Please look at this sequence and report its Kd: LMLPGMNGI
Result: 238

Request: Please look at this sequence and report its Kd: YLSEGDMAA
Result: 294

Request: Please look at this sequence and report its Kd: TVLRFVPPL
Result: 76.9

Request: Please look at this sequence and report its Kd: LLCCSGVATA
Result: 152

Request: Please look at this sequence and report its Kd: RLLDDTPEV
Result: 96.1

Request: Please look at this sequence and report its Kd: ATYDKGILTV
Result: 156

Request: Please look at this sequence and report its Kd: AMKADIQHV
Result: 167

Request: Please look at this sequence and report its Kd: MLGNAPSVV
Result: 227

Request: Please look at this sequence and report its Kd: FLTCDANLAV
Result: 104

Request: Please look at this sequence and report its Kd: YLLALRYLA
Result: 10

Request: Please look at this sequence and report its Kd: YLYVHSPAL
Result: 5.4

Request: Please look at this sequence and report its Kd: LLLDVTPLSL
Result: 17

Request: Please look at this sequence and report its Kd: FVVALIPLV
Result: 7.6

Request: Please look at this sequence and report its Kd: RLMIGTAAA
Result: 227

Request: Please look at this sequence and report its Kd: LLPLGYPFV
Result: 333

Request: Please look at this sequence and report its Kd: RMSRVTTFTV
Result: 75.5

Request: Please look at this sequence and report its Kd: SLAGFVRML
Result: 111

Request: Please look at this sequence and report its Kd: GLVDFVKHI
Result: 217

Request: Please look at this sequence and report its Kd: MLQDMAILT
Result: 167

Request: Please look at this sequence and report its Kd: SLLEIGEGVV
Result: 50

Request: Please look at this sequence and report its Kd: MALLRLPLV
Result: 52.6

Request: Please look at this sequence and report its Kd: ALLSDWLPA
Result: 94.3

Request: Please look at this sequence and report its Kd: SLYFGGICVI
Result: 167

---

Record form. Attribute: log10(Kd). Fill in for each entry.
STUDY TARGET: HLA-A*02:01
METHOD DESCRIPTION: IEDB peptide-MHC binding, purified MHC/competitive/radioactivity; filed as Kd, often an IC50 or EC50 that approximates it; bounds were set here for any values at or beyond the usual limits of such assays
CONDITIONS USED: source organism: Mycobacterium tuberculosis
// units: nM (pre-log); metric: Kd; scale: log10

Request: Please look at this sequence and report its log10(Kd): YLSQIAVLL
Result: 1.08

Request: Please look at this sequence and report its log10(Kd): GLYRQWALA
Result: 2.27

Request: Please look at this sequence and report its log10(Kd): VLLLDVTPL
Result: 1.70

Request: Please look at this sequence and report its log10(Kd): LALVLLMLPV
Result: 2.52

Request: Please look at this sequence and report its log10(Kd): WMAETTLGRV
Result: 2.47

Request: Please look at this sequence and report its log10(Kd): KIFMLVTAVV
Result: 2.62

Request: Please look at this sequence and report its log10(Kd): ALVLLMLPVV
Result: 0.83

Request: Please look at this sequence and report its log10(Kd): LLWQDPVPA
Result: 1.66

Request: Please look at this sequence and report its log10(Kd): AMLQDMAIL
Result: 1.99

Request: Please look at this sequence and report its log10(Kd): LLFRFMRPLI
Result: 1.92

Request: Please look at this sequence and report its log10(Kd): RMPAVTDLV
Result: 2.10

Request: Please look at this sequence and report its log10(Kd): FLMPVEDVFI
Result: 0.52

Request: Please look at this sequence and report its log10(Kd): VLLEDGGVEV
Result: 2.52

Request: Please look at this sequence and report its log10(Kd): LLFLGVVFL
Result: 1.70

Request: Please look at this sequence and report its log10(Kd): ILLSIARVV
Result: 2.66

Request: Please look at this sequence and report its log10(Kd): ILSSLGLPV
Result: 1.70

Request: Please look at this sequence and report its log10(Kd): AIYHPQQFV
Result: 2.50

Request: Please look at this sequence and report its log10(Kd): GLYGAQYDV
Result: 2.40

Request: Please look at this sequence and report its log10(Kd): LLACAVIHA
Result: 2.40

Request: Please look at this sequence and report its log10(Kd): GLYYLTTEV
Result: 1.32

Request: Please look at this sequence and report its log10(Kd): RLQPQVGWEV
Result: 2.25
